# credit: the supplement of paper PMC11061612

Attribute: Bliss excess
Tested on: JSC-1 (B-Cell Non-Hodgkin's Lymphoma);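 also: after 72 h of two-drug dosing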
Experiment: Bliss excess, mean over the matrix (fraction); higher = more synergy
observation.type: Bliss excess

• CN(CCO)CC[C@H](CSc1ccccc1)Nc1ccc(S(=O)(=O)NC(=O)c2ccc(N3CCC([C@@H](O)c4ccccc4-c4ccc(Cl)cc4)CC3)cc2)cc1S(=O)(=O)C(F)(F)F [AZD4320] + Cc1cc2ncnn2cc1Nc1ncc2c(n1)n(C1CCOCC1)c(=O)n2C [AZD7648] (first compound max 1 µM, 7x7, partner max 10 µM) = -0.0113
• CC1(C)CCC(CN2CCN(c3ccc(C(=O)NS(=O)(=O)c4ccc(NCC5CCOCC5)c([N+](=O)[O-])c4)c(Oc4cnc5[nH]ccc5c4)c3)CC2)=C(c2ccc(Cl)cc2)C1 [Venetoclax] + Cn1cnc2c(F)c(Nc3ccc(Br)cc3Cl)c(C(=O)NOCCO)cc21 [Selumetinib] (first compound max 1 µM, 7x7, partner max 3 µM) = -0.0184
• Cc1c2c(nn1C)CSCc1cc(n(C)n1)CSc1cc(c3ccccc3c1)OCCCc1c(C(=O)O)n(C)c3c-2c(Cl)ccc13 [AZD5991] + CCN(CCO)CCCOc1ccc2c(Nc3cc(CC(=O)Nc4cccc(F)c4)[nH]n3)ncnc2c1 [AZD2811] (first compound max 1 µM, 7x7, partner max 1 µM) = 0.123
• C[C@@H](c1ccc2nccn2c1)n1nnc2ncc(-c3cnn(C)c3)nc21 [Savolitinib] + Cc1c2c(nn1C)CSCc1cc(n(C)n1)CSc1cc(c3ccccc3c1)OCCCc1c(C(=O)O)n(C)c3c-2c(Cl)ccc13 [AZD5991] (first compound max 1 µM, 7x7, partner max 1 µM) = -0.0434

* * *

Tested on: CAL-29 (Bladder Carcinoma)
Test: combination Emax (second highest fraction inhibited in the dose matrix, 72 h); higher = more inhibition; extreme values may be limits of the assay
observation.type: combination Emax

* C=CCn1c(=O)c2cnc(Nc3ccc(N4CCN(C)CC4)cc3)nc2n1-c1cccc(C(C)(C)O)n1 [AZD1775] + O=C(c1cc(Cc2n[nH]c(=O)c3ccccc23)ccc1F)N1CCN(C(=O)C2CC2)CC1 [Olaparib] (first compound max 1 µM, partner max 10 µM) | 0.612
* C[C@@H](c1ccc2nccn2c1)n1nnc2ncc(-c3cnn(C)c3)nc21 [Savolitinib] + CC1(C)CCC(CN2CCN(c3ccc(C(=O)NS(=O)(=O)c4ccc(NCC5CCOCC5)c([N+](=O)[O-])c4)c(Oc4cnc5[nH]ccc5c4)c3)CC2)=C(c2ccc(Cl)cc2)C1 [Venetoclax] (first compound max 1 µM, 7x7, partner max 1 µM) | 0.0725
* C[C@@H](c1ccc2nccn2c1)n1nnc2ncc(-c3cnn(C)c3)nc21 [Savolitinib] + Cc1c2c(nn1C)CSCc1cc(n(C)n1)CSc1cc(c3ccccc3c1)OCCCc1c(C(=O)O)n(C)c3c-2c(Cl)ccc13 [AZD5991] (first compound max 1 µM, 7x7, partner max 1 µM) | 0.186
* CC1(C)CCC(CN2CCN(c3ccc(C(=O)NS(=O)(=O)c4ccc(NCC5CCOCC5)c([N+](=O)[O-])c4)c(Oc4cnc5[nH]ccc5c4)c3)CC2)=C(c2ccc(Cl)cc2)C1 [Venetoclax] + C[C@@H]1COCCN1C2=NC(=NC(=C2)C3(CC3)[S@](=N)(=O)C)C4=C5C=CNC5=NC=C4 [AZD6738] (first compound max 1 µM, 7x7, partner max 10 µM) | 0.689
